- TARGET SYSTEM: Matrilysin (Homo sapiens)
- Sequence (P09237 whole entry): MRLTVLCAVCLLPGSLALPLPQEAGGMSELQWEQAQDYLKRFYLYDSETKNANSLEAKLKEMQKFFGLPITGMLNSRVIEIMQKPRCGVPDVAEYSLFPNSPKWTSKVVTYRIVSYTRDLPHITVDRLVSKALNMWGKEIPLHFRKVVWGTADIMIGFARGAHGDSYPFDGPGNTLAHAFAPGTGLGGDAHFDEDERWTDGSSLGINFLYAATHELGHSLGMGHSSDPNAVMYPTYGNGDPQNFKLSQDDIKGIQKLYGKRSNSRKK
- ASSAY METHOD TEXT: Inhibition of MMP-7 (unknown origin)
Please go through the items and note down their pKi.
In simple prose, pKi is minus the logarithm base ten of a concentration in moles per litre.

So what's the measured pKi for this one? "O=C(NO)C1(S(=O)(=O)c2ccc(Oc3ccc(Cl)cc3)cc2)CCOCC1"
5.92

So what's the measured pKi for this one? C=CC[C@H](C(=O)NO)C(CC(C)C)C(=O)N[C@@H](Cc1ccccc1)C(=O)NC (some centres not stated)
7.22

----------
- ASSAY METHOD TEXT: Oral bioavailability in cynomolgus monkey at 3 mg/kg
- Type: ADME, organism-based, Macaca fascicularis
- ASSAY CONDITIONS: in vivo
READOUT LABEL: bioavailability (%)
Your answer should be a plain number; it is taken to be in %.

So what's the measured bioavailability for this one? "CC1(C)NC(=O)N(C[C@@H](COc2ccc(-c3ccc(OC(F)(F)F)cc3)cc2)N(O)C=O)C1=O"
84

----------
Please go through the items and note down their IC50.
- TARGET SYSTEM: Neutrophil collagenase (Homo sapiens, UniProt P22894)
- Sequence (P22894 whole entry): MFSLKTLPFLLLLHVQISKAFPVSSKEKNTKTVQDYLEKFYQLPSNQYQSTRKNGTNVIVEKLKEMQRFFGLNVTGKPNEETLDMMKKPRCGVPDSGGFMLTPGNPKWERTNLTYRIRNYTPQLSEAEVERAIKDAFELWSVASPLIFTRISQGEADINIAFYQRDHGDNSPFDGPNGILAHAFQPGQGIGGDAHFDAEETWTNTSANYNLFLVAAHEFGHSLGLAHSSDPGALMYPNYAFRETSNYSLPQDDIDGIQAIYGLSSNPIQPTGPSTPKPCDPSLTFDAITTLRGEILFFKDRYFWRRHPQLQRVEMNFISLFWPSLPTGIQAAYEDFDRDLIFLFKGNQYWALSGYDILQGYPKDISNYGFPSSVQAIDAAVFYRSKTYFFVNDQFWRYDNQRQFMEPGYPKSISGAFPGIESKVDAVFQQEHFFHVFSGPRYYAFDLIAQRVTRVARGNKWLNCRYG
- ASSAY METHOD TEXT: Inhibition of MMP-8 (unknown origin)

So what's the measured IC50 for this one? "COc1ccc(-c2cn(-c3ccc(S(=O)(=O)C4(C(=O)NO)CCOCC4)cc3)nn2)cc1"
0.0061 µM

So what's the measured IC50 for this one? "O=C(NO)C1(S(=O)(=O)c2ccc(-n3cc(-c4ccc(-c5ccccc5)cc4)nn3)cc2)CCOCC1"
> 0.1 µM

So what's the measured IC50 for this one? "C[C@H]1c2cccc(O)c2C(=O)C2=C(O)[C@]3(O)C(=O)C(C(N)=O)=C(O)[C@@H](N(C)C)[C@@H]3[C@@H](O)[C@@H]21"
26 µM

So what's the measured IC50 for this one? O=C(NO)C(Cc1ccccc1)NS(=O)(=O)c1ccc(-c2cn(-c3ccc(-c4ccccc4)cc3)nn2)cc1 (stereo unspecified)
> 0.5 µM

So what's the measured IC50 for this one? "CN(C)c1ccc(-c2cn(-c3ccc(S(=O)(=O)C4(C(=O)NO)CCOCC4)cc3)nn2)cc1"
0.202 µM

So what's the measured IC50 for this one? C=CC[C@H](C(=O)NO)C(CC(C)C)C(=O)N[C@@H](Cc1ccccc1)C(=O)NC (stereo partly specified)
0.003 µM

----------
Lab note: IC50 readings collected with 72 kDa type IV collagenase (Homo sapiens) for the following molecules.
Sequence (P08253 whole entry): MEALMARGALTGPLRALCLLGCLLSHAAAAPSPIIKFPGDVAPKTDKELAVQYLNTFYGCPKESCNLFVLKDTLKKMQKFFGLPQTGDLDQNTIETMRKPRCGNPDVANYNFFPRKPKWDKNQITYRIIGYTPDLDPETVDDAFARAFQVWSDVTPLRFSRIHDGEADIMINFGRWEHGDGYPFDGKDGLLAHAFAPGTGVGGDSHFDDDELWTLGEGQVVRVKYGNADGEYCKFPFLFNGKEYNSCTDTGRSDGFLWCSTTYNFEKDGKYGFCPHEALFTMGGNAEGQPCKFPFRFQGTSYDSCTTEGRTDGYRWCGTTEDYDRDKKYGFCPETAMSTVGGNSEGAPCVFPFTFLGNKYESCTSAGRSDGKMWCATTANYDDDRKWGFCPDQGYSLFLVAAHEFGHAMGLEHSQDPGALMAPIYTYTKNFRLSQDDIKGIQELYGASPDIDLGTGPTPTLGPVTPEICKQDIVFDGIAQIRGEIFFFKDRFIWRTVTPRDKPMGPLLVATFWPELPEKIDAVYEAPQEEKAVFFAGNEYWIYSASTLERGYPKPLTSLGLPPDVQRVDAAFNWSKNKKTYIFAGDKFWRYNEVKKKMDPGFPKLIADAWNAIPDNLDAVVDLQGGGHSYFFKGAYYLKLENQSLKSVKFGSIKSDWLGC
Your answer should be a plain number; it is taken to be in nM.

Test system 72 kDa type IV collagenase (Homo sapiens); read-out IC50; what value for "CNC(=O)[C@@H](NC(=O)[C@H](CC(C)C)NC(=O)[C@H](S)CCN1C(=O)N(C)C(C)(C)C1=O)C(C)(C)C" ?
41

Test system 72 kDa type IV collagenase (Homo sapiens); read-out IC50; what value for "CC(C)ON([C@@H](CCNC(=O)OCc1ccccc1)C(=O)NO)S(=O)(=O)c1ccc(-c2ccccc2)cc1" ?
0.41

Test system 72 kDa type IV collagenase (Homo sapiens); read-out IC50; what value for "O=C(CS(=O)(=O)c1ccc(-c2ccccc2)cc1)NO" ?
6

Test system 72 kDa type IV collagenase (Homo sapiens); read-out IC50; what value for "O=C(O)CS(=O)(=O)c1ccc(-c2ccccc2)cc1" ?
12500

Test system 72 kDa type IV collagenase (Homo sapiens); read-out IC50; what value for "CO[C@H](C(=O)NO)[C@@H](CC(C)C)C(=O)N[C@H](C(=O)Nc1ccccn1)C(C)(C)C" ?
80

Test system 72 kDa type IV collagenase (Homo sapiens); read-out IC50; what value for "C[C@H]1c2cccc(O)c2C(=O)C2=C(O)[C@]3(O)C(=O)C(C(N)=O)=C(O)[C@@H](N(C)C)[C@@H]3[C@@H](O)[C@@H]21" ?
56000

Test system 72 kDa type IV collagenase (Homo sapiens); read-out IC50; what value for C=CC[C@H](C(=O)NO)C(CC(C)C)C(=O)N[C@@H](Cc1ccccc1)C(=O)NC (some centres not stated) ?
5
